Could you please report measured log10(IC50) for the items listed next?
# Test system: Jurkat cells
# Procedure text: Jurkat proliferation assay (CellTiter-Glo)
# Format: cell-based
# Settings: Homo sapiens, Jurkat; read-out: Jurkat IC50
Heads up, the numbers here are log10 of IC50 in nM units.

C=CC(=O)Nc1cccc(Nc2nc(N[C@H]3CC[C@H](N(C)C)CC3)nc3c(CC)cnn23)c1 on Jurkat cells gives log10(IC50) = 1.78

C=CC(=O)Nc1cccc(Nc2cc(N[C@H]3CC[C@H](N(C)C)CC3)nc3c(C(C)C)cnn23)c1 on Jurkat cells gives log10(IC50) = 2.71

CC(C)n1cnc2c(Nc3cccc(NC(=O)c4ccc(NC(=O)/C=C/CN(C)C)cc4)c3)nc(N[C@H]3CC[C@H](N(C)C)CC3)nc21 on Jurkat cells gives log10(IC50) = 3.61

CC(C)n1cnc2c(Nc3cccc(NC(=O)/C=C/CN(C)C)c3)nc(N[C@H]3CC[C@H](N(C)C)CC3)nc21 on Jurkat cells gives log10(IC50) = 3.13

C=CC(=O)Nc1ccc(C(=O)Nc2cccc(Nc3nc(N4CCCCC4CCO)nc4c3ncn4C(C)C)c2)cc1 (centres unmarked) on Jurkat cells gives log10(IC50) = 2.07

CC(C)n1cnc2c(Nc3cccc(NC(=O)c4ccc(NC(=O)/C=C/CN(C)C)cc4)c3)nc(N3CCCC(N)C3)nc21 (centres unmarked) on Jurkat cells gives log10(IC50) = 3.29

CCc1cnn2c(Nc3cccc(NC(=O)c4ccc(NC(=O)/C=C/CN(C)C)cc4)c3)cc(N3CCCC(N)C3)nc12 (centres unmarked) on Jurkat cells gives log10(IC50) = 3.02

C=CC(=O)Nc1cccc(Nc2nc(N3CCCCC3CCO)nc3c(CC)cnn23)c1 (centres unmarked) on Jurkat cells gives log10(IC50) = 1.28

C=CC(=O)Nc1cccc(Nc2cc(N3CCCCC3CCO)nc3c(CC)cnn23)c1 (centres unmarked) [E-9(SB1-E-23)] on Jurkat cells gives log10(IC50) = 1.90

C=CC(=O)Nc1cccc(Nc2nc(N3CCCCC3CCO)nc3c2ncn3C(C)C)c1 (centres unmarked) on Jurkat cells gives log10(IC50) = 2.72

C=CC(=O)Nc1cccc(Nc2cc(N[C@H]3CC[C@H](N(C)C)CC3)nc3c(CC)cnn23)c1 on Jurkat cells gives log10(IC50) = 2.50

---

# Subject of test: CDK2/CycA (Homo sapiens, UniProt P24941)
# Procedure text: CDK2/CycA inhibition (Tables A1, A2)
Could you please report measured IC50 for the items listed next?
Respond numerically; units are µM and should not be typed.

# IC50 (molecule: C=CC(=O)Nc1cccc(CNc2nc(N[C@H]3CC[C@H](N(C)C)CC3)nc3c(CC)cnn23)c1 [MFH-2-67-1] ) is 1.02

# IC50 (molecule: C=CC(=O)Nc1cccc(Nc2cc(N3CCCCC3CCO)nc3c(CC)cnn23)c1 (centres unmarked) [E-9(SB1-E-23)] ) is 0.25

# IC50 (molecule: C=CC(=O)Nc1ccc(C(=O)Nc2cccc(Nc3nc(N[C@H]4CC[C@H](N(C)C)CC4)nc4c3ncn4C(C)C)c2)cc1 [THZ-5-38-1] ) is 0.563

# IC50 (molecule: C=CC(=O)NC1CCCC(Nc2cc(N3CCCC[C@H]3CCO)nc3c(CC)cnn23)C1 (some centres unmarked) [MFH-1-167-1] ) is 0.328

# IC50 (molecule: C=CC(=O)Nc1ccc(Nc2cc(N3CCCC[C@H]3CCO)nc3c(CC)cnn23)cc1 [MFH-1-187-1] ) is 0.171
